# System: HSV-2 virus (MS strain)
# Assay notes: HSV-2 Cellomics Assay (immunofluorescence of HSV protein gD)
# Format: cell-based
# Stated conditions: Human alphaherpesvirus 2; HSV-2 (MS strain, MOI 0.06) infected ARPE-19 cells, assay medium containing 2% FBS, 16 hours; read-out: EC50-HSV2-FBS
Endpoint label: EC50 (nM)

INSERT INTO assay_data (compound, target_entity, recorded_value) VALUES
  ('COCC[S@@](=N)(=O)c1cc2c(cc1F)CCN2C(=O)[C@H]1Cc2cc(-c3ccccn3)ccc2O1 [Example 17]', 'HSV-2 virus (MS strain)', 39),
  ('CCCC(=O)NS(=O)(=O)c1cc2c(cc1F)C[C@@H](C)N2C(=O)[C@@H]1Cc2ccc(-c3ccccn3)cc2C1 [Example 32]', 'HSV-2 virus (MS strain)', 231),
  ('N=S(=O)(c1cc2c(cc1F)CCN2C(=O)[C@@H]1Cc2ccc(-c3ccccn3)cc2C1)C1CC1 (stereo partly shown) [Example 19]', 'HSV-2 virus (MS strain)', 56),
  ('CC[S@@](=N)(=O)c1cc2c(cc1F)CCN2C(=O)[C@H]1Cc2cc(-c3ccccn3)ccc2O1 [Example 6]', 'HSV-2 virus (MS strain)', 40),
  ('N=[S@](=O)(c1cc2c(cc1F)CCN2C(=O)[C@@H]1Cc2ccc(-c3ccccn3)cc2C1)C1CC1 [Example 20]', 'HSV-2 virus (MS strain)', 33);

a: CCC[S@@](=N)(=O)c1cc2c(cc1F)CCN2C(=O)[C@@H]1Cc2ccc(-c3ccccn3)cc2C1 [Example 8]
b: CC[S@](=N)(=O)c1cc2c(cc1F)C[C@@H](C)N2C(=O)[C@@H]1Cc2ccc(-c3ccccn3)cc2C1 [Example 27]
// query For a and b , which recorded EC50 is lower? Pick one; state its label.
// result a
(a: 16 nM, b: 55 nM)

====

# System: HSV-2 virus (MS strain)
# Assay notes: HSV-2 Cellomics Assay (immunofluorescence of HSV protein gD)
# Assay type: cell-based
# Stated conditions: Human alphaherpesvirus 2; HSV-2 (MS strain, MOI 0.06) infected ARPE-19 cells, assay medium containing 10% human serum, 16 hours; read-out: EC50-HSV2-10% Human Serum
Endpoint label: EC50 (nM)

See these solved cases before continuing.
INSERT INTO results (compound, endpoint_label, units, recorded_value) VALUES
  ('CN=S(C)(=O)c1cc2c(cc1F)CCN2C(=O)[C@@H]1Cc2ccc(-c3ccccn3)cc2C1 (stereo partly shown) [Example 22]', 'EC50', 'nM', 737),
  ('N=S(=O)(c1cc2c(cc1F)CCN2C(=O)[C@@H]1Cc2ccc(-c3ccccn3)cc2C1)C1CC1 (stereo partly shown) [Example 19]', 'EC50', 'nM', 453),
  ('CC[S@](=N)(=O)c1cc2c(cc1F)CCN2C(=O)[C@@H]1Cc2ccc(-c3ccccn3)cc2C1 [Example 3]', 'EC50', 'nM', 258);

I: CCC[S@](=N)(=O)c1cc2c(cc1F)CCN2C(=O)[C@@H]1Cc2ccc(-c3ccccn3)cc2C1 [Example 9]
II: CN=[S@](C)(=O)c1cc2c(cc1F)CCN2C(=O)[C@@H]1Cc2ccc(-c3ccccn3)cc2C1 [Example 23]
III: COCC[S@@](=N)(=O)c1cc2c(cc1F)CCN2C(=O)[C@H]1Cc2cc(-c3ccccn3)ccc2O1 [Example 17]
// query List items by EC50 in falling order. Form entry: labels listed in requested order.
// result II, I, III

====

# System: HSV-2 virus (MS strain)
# Assay notes: HSV-2 Cellomics Assay (immunofluorescence of HSV protein gD)
# Type: cell-based
# Stated conditions: Human alphaherpesvirus 2; HSV-2 (MS strain, MOI 0.06) infected ARPE-19 cells, assay medium containing 10% human serum, 16 hours; read-out: EC50-HSV2-10% Human Serum
Endpoint label: EC50 (nM)

INSERT INTO assay_data (molecule, target_entity, recorded_value) VALUES
  ('CC[S@@](=N)(=O)c1cc2c(cc1F)C[C@@H](C)N2C(=O)[C@@H]1Cc2ccc(-c3ccccn3)cc2C1', 'HSV-2 virus (MS strain)', 92),
  ('N=[S@@](=O)(c1cc2c(cc1F)CCN2C(=O)[C@@H]1Cc2ccc(-c3ccccn3)cc2C1)C1CC1', 'HSV-2 virus (MS strain)', 949),
  ('CCNS(=O)(=O)c1cc2c(cc1F)CCN2C(=O)[C@H]1Cc2cc(-c3ccccn3)ccc2O1', 'HSV-2 virus (MS strain)', 570),
  ('CCC[S@](=N)(=O)c1cc2c(cc1F)CCN2C(=O)[C@H]1Cc2cc(-c3ccccn3)ccc2O1', 'HSV-2 virus (MS strain)', 406),
  ('COCC[S@](=N)(=O)c1cc2c(cc1F)CCN2C(=O)[C@H]1Cc2cc(-c3ccccn3)ccc2O1', 'HSV-2 virus (MS strain)', 208),
  ('CCC[S@@](=N)(=O)c1cc2c(cc1F)CCN2C(=O)[C@H]1Cc2cc(-c3ccccn3)ccc2O1', 'HSV-2 virus (MS strain)', 98),
  ('CC[S@](=N)(=O)c1cc2c(cc1F)C[C@@H](C)N2C(=O)[C@@H]1Cc2ccc(-c3ccccn3)cc2C1', 'HSV-2 virus (MS strain)', 113),
  ('COCC[S@](=N)(=O)c1cc2c(cc1F)CCN2C(=O)[C@@H]1Cc2ccc(-c3ccccn3)cc2C1', 'HSV-2 virus (MS strain)', 87),
  ('CC[S@@](=N)(=O)c1cc2c(cc1F)CCN2C(=O)[C@@H]1Cc2ccc(-c3ccccn3)cc2C1', 'HSV-2 virus (MS strain)', 71),
  ('CCCC(=O)NS(=O)(=O)c1cc2c(cc1F)C[C@@H](C)N2C(=O)[C@@H]1Cc2ccc(-c3ccccn3)cc2C1', 'HSV-2 virus (MS strain)', 2380);

I: CC[S@](=N)(=O)c1cc2c(cc1F)CCN2C(=O)[C@H]1Cc2cc(-c3ccccn3)ccc2O1
II: COCC[S@@](=N)(=O)c1cc2c(cc1F)CCN2C(=O)[C@@H]1Cc2ccc(-c3ccccn3)cc2C1
III: CC[S@@](=N)(=O)c1cc2c(cc1F)CCN2C(=O)[C@H]1Cc2cc(-c3ccccn3)ccc2O1
IV: CCS(=N)(=O)c1cc2c(cc1F)CC(C)N2C(=O)[C@@H]1Cc2ccc(-c3ccccn3)cc2C1 (some centres unmarked)
V: CCNS(=O)(=O)c1cc2c(cc1F)CCN2C(=O)[C@@H]1Cc2ccc(-c3ccccn3)cc2C1
// query List items by EC50 in falling order. Form entry: labels listed in requested order.
// result I, V, IV, III, II

====

# Tested on: HSV-2 virus (MS strain)
# Assay notes: HSV-2 Cellomics Assay (immunofluorescence of HSV protein gD)
# Format: cell-based
# Stated conditions: Human alphaherpesvirus 2; HSV-2 (MS strain, MOI 0.06) infected ARPE-19 cells, assay medium containing 2% FBS, 16 hours; read-out: EC50-HSV2-FBS
Endpoint label: EC50 (nM)

a: CCS(=N)(=O)c1cc2c(cc1F)CC(C)N2C(=O)[C@@H]1Cc2ccc(-c3ccccn3)cc2C1 (stereo partly shown)
b: CC[S@@](=N)(=O)c1cc2c(cc1F)CCN2C(=O)[C@@H]1Cc2ccc(-c3ccccn3)cc2C1
// query Which value of EC50 is greater, the one for a or the one for b ? Pick one; state its label.
// result a

====

# Tested on: HSV-2 virus (MS strain)
# Assay notes: HSV-2 Cellomics Assay (immunofluorescence of HSV protein gD)
# Assay type: cell-based
# Stated conditions: Human alphaherpesvirus 2; HSV-2 (MS strain, MOI 0.06) infected ARPE-19 cells, assay medium containing 2% FBS, 16 hours; read-out: EC50-HSV2-FBS
Endpoint label: EC50 (µM)

INSERT INTO measurements (molecule, target_entity, endpoint_label, units, recorded_value) VALUES
  ('CN=S(C)(=O)c1cc2c(cc1F)CCN2C(=O)[C@@H]1Cc2ccc(-c3ccccn3)cc2C1 (some centres unmarked)', 'HSV-2 virus (MS strain)', 'EC50', 'µM', 0.211);

a: CC[S@](=N)(=O)c1cc2c(cc1F)CCN2C(=O)[C@H]1Cc2cc(-c3ccccn3)ccc2O1
b: CC[S@](=N)(=O)c1cc2c(cc1F)CCN2C(=O)[C@@H]1Cc2ccc(-c3ccccn3)cc2C1
c: COCCS(=N)(=O)c1cc2c(cc1F)CCN2C(=O)[C@@H]1Cc2ccc(-c3ccccn3)cc2C1 (some centres unmarked)
d: CCNS(=O)(=O)c1cc2c(cc1F)CCN2C(=O)[C@@H]1Cc2ccc(-c3ccccn3)cc2C1
// query List items by EC50 in falling order. Form entry: labels listed in requested order.
// result a, b, c, d
